assay: Half life in C57BL/6 mouse at 5 mg/kg, iv measured over 0.25 to 24 hrs by LC-MS/MS analysis; assay type: ADME, organism-based; details: in vivo
Observable: half-life (h)

I = NCc1cccc(C2CCN(C(=O)c3ccc(O)c(O)c3)CC2)c1
II = NCc1cccc(C2CCN(C(=O)c3cccc(-c4cccc(B(O)O)c4)c3)CC2)c1
Name the one with the greater half-life value, either I or II as given. Your answer should be the label attached to the chosen record.
II

---

test: Inhibition of human recombinant beta-tryptase pre-incubated for 3 hrs before N-tert-butoxycarbonyl-Gln-Ala-Arg-AMC substrate addition and measured every 30 secs for 15 mins by spectrometry
As shown below, each of these compounds has a reported pIC50 value.
When answering, recall that pIC50 equals minus log10 of the concentration in mol/L, and write that number alone.

// below: answered compounds
Compound structure	pIC50
NCc1cccc(C2CCN(C(=O)c3cccc(-c4cccc(B(O)O)c4)c3)CC2)c1	6.07
CONC(=O)c1ccc(C(=O)N2CCC(c3cccc(CN)c3)CC2)cc1O	6.92

# context switch: different compound, same pIC50
Need pIC50 of NCc1ccc2c(c1)C1(CCN(C(=O)c3cccc(-c4cccc(B(O)O)c4)c3)CC1)CO2 , thanks.
5.91

---

target: CYP2D6 (Homo sapiens, UniProt P10635); assay: Inhibition of CYP2D6 (unknown origin) at 10 uM relative to control; assay type: ADME
Sequence (P10635 whole entry): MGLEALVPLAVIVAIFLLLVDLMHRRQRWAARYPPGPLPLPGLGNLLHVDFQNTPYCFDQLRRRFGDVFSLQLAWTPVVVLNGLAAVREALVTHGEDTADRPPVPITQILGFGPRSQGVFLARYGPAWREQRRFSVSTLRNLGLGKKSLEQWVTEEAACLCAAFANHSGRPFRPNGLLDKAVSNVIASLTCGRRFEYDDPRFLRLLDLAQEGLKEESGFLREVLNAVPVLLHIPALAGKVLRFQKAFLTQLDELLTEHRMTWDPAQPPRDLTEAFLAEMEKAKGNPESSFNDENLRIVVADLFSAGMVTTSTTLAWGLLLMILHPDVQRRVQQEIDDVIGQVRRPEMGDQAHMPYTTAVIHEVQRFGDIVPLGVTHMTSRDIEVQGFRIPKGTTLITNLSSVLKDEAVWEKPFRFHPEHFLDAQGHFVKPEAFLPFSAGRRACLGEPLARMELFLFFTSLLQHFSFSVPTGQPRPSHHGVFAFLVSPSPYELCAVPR
Observable: inhibition at 10 µM (%)

I = NCc1cccc(C2CCN(C(=O)/C=C/c3ccc(O)c(O)c3)CC2)c1
II = NCc1cccc(C2CCN(C(=O)c3cccc4ccc(B(O)O)cc34)CC2)c1
Given the listed items, does I or II have the lesser reported inhibition at 10 µM? Your answer should be the label attached to the chosen record.
I

---

assay: Plasma concentration in mouse xenografted with human HMC1 cells at 10 mg/kg, iv dosed at time 0 and again 24 hrs later and measured at 0 hrs after second dose by LC-MS/MS analysis; format: ADME, organism-based
Observable: concentration at 0 h (nM)
State the answer as a number, implicitly in nM.

Need concentration at 0 h of NCc1ccc2c(c1)C1(CCN(C(=O)c3cccc(-c4cccc(B(O)O)c4)c3)CC1)CO2.O=C(O)C(F)(F)F , thanks.
0.53

---

assay: Stability in rat liver microsomes assessed as parent compound remaining at 15 uM in presence of NADPH incubated for 60 mins; format: ADME, Microsome; settings: read-out: Stability
Observable: remaining at 1 h, 15 µM (%)

a = NCc1cccc(C2CCN(C(=O)c3cccc4ccc(B(O)O)cc34)CC2)c1
b = NCc1cccc(C2CCN(C(=O)/C=C/c3ccc(O)c(O)c3)CC2)c1
Name the one with the greater remaining at 1 h, 15 µM value, either a or b as given. Your answer should be the label attached to the chosen record.
a

---

As shown below, each of these molecules has a reported pIC50 value.
Biological target: Tryptase beta-2 (Mus musculus)
Sequence (P21845 whole entry): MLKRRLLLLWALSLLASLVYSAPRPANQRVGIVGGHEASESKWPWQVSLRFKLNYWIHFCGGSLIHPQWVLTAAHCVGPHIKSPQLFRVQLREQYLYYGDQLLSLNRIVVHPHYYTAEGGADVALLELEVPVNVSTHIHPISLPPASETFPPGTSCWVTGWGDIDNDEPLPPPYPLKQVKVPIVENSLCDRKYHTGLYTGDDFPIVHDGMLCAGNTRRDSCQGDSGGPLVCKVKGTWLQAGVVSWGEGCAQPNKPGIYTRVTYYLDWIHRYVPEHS
When answering, recall that pIC50 equals minus log10 of the concentration in mol/L, and write that number alone.

// below: answered molecules
Compound structure	Measured number
NCc1cccc(C2CCN(C(=O)c3ccc(O)c(O)c3)CC2)c1	5.64
NCc1cccc(C2CCN(C(=O)c3cc(O)c(O)c(Cl)c3)CC2)c1	4.76

Need pIC50 of NCc1ccc2c(c1)C1(CCN(C(=O)c3ccc(Cl)c(-c4cccc(B(O)O)c4)c3)CC1)CO2 , thanks.
6.22

Need pIC50 of COc1cc(C(=O)N2CCC3(CC2)COc2ccc(CN)cc23)cc(O)c1O , thanks.
4.93

Need pIC50 of COc1cc(C(=O)N2CCC(c3cccc(CN)c3)CC2)cc(O)c1O , thanks.
5.13

Need pIC50 of NCc1cccc(C2CCN(C(=O)c3cccc(-c4cccc(B(O)O)c4)c3)CC2)c1 , thanks.
5.85

Need pIC50 of NCc1ccc2c(c1)C1(CCN(C(=O)c3cccc(-c4cccc5c4COB5O)c3)CC1)CO2 , thanks.
5.54

Need pIC50 of CONC(=O)c1cc(C(=O)N2CCC3(CC2)COc2ccc(CN)cc23)ccc1O , thanks.
5.67

Need pIC50 of NCc1ccc2c(c1)C1(CCN(C(=O)c3cccc(-c4cccc(B(O)O)c4)c3)CC1)CO2 , thanks.
5.94

Need pIC50 of NCc1ccc2c(c1)C1(CCN(C(=O)c3ccc(O)c(O)c3)CC1)CO2 , thanks.
5.60

Need pIC50 of NCc1cccc(C2CCN(C(=O)c3ccc(CO)c(O)c3)CC2)c1 , thanks.
5.81

Need pIC50 of NCc1ccc2c(c1)C1(CCN(C(=O)c3ccc(CO)c(O)c3)CC1)CO2 , thanks.
5.33

Need pIC50 of CONC(=O)c1cc(C(=O)N2CCC(c3cccc(CN)c3)CC2)ccc1O , thanks.
6.34

Need pIC50 of NCc1ccc2c(c1)C1(CCN(C(=O)c3cc(O)c(O)c(Cl)c3)CC1)CO2 , thanks.
4.93

---

assay: Stability in human liver microsomes assessed as parent compound remaining at 15 uM in presence of UDPGA incubated for 60 mins; assay type: ADME, Microsome; details: liver microsomes, read-out: Stability
Observable: remaining at 1 h, 15 µM (%)

// below: answered compounds
Compound structure	Measured number
CONC(=O)c1cc(C(=O)N2CCC3(CC2)COc2ccc(CN)cc23)ccc1O	67
NCc1cccc(C2CCN(C(=O)c3ccc(O)c(O)c3)CC2)c1	53
NCc1ccc2c(c1)C1(CCN(C(=O)c3cccc(-c4cccc(B(O)O)c4)c3)CC1)CO2	94

I = CONC(=O)c1cc(C(=O)N2CCC(c3cccc(CN)c3)CC2)ccc1O
II = NCc1cccc(C2CCN(C(=O)c3cccc(-c4cccc(B(O)O)c4)c3)CC2)c1
III = NCc1cccc(C2CCN(C(=O)c3cc(O)c(O)c(Cl)c3)CC2)c1
Descending sort on remaining at 1 h, 15 µM required. In plain terms: list the labels in the order you were asked to.
I, III, II

---

assay: Apparent permeability from apical to basolateral side in MDCK cells; assay type: ADME, cell-based, Canis lupus familiaris; conditions: dog
Observable: Papp A→B (×10⁻⁶ cm/s)

Compound structure	Measurement unit	Papp A→B
NCc1cccc(C2CCN(C(=O)/C=C/c3ccc(O)c(O)c3)CC2)c1	×10⁻⁶ cm/s	0.31
NCc1cccc(C2CCN(C(=O)c3cccc4ccc(B(O)O)cc34)CC2)c1	×10⁻⁶ cm/s	0.28

---

test: Stability in human liver microsomes assessed as parent compound remaining at 15 uM in presence of UDPGA incubated for 60 mins; type: ADME, Microsome; details: liver microsomes, read-out: Stability
Observable: remaining at 1 h, 15 µM (%)

Compound structure	Measurement unit	remaining at 1 h, 15 µM
COc1cc(C(=O)N2CCC3(CC2)COc2ccc(CN)cc23)cc(O)c1O	%	72
NCc1ccc2c(c1)C1(CCN(C(=O)c3cccc(-c4cccc5c4COB5O)c3)CC1)CO2	%	82
NCc1ccc2c(c1)C1(CCN(C(=O)c3ccc(O)c(O)c3)CC1)CO2	%	87
NCc1cccc(C2CCN(C(=O)c3ccc(CO)c(O)c3)CC2)c1	%	81

meta.source: ChEMBL document CHEMBL4342466
